tested on: UACC-62; assay: NCI single-dose growth inhibition screen; type: cell-based; settings: Homo sapiens; Melanoma UACC-62; single dose 10^−5 M
Listed here: items and their measured inhibition at 10 µM.
Write down the value, and be sure its unit follows.

# example entries with known answers
• O=C(O)c1cn(C2CC2)c2cc(N3CCN(C(=O)CCCN4C(=O)SC(=Cc5cccc([N+](=O)[O-])c5)C4=O)CC3)c(F)cc2c1=O = 10.3%
• O=C(O)c1cn(C2CC2)c2cc(N3CCN(C(=O)CCCN4C(=O)SC(=Cc5cccc6ccccc56)C4=O)CC3)c(F)cc2c1=O = 20.4%
• O=C(O)c1cn(C2CC2)c2cc(N3CCN(C(=O)CCCN4C(=O)CSC4=O)CC3)c(F)cc2c1=O = 8.4%

Now let's try a different one.
Which inhibition at 10 µM value belongs to "O=C(O)c1cn(C2CC2)c2cc(N3CCN(C(=O)CCCN4C(=O)S/C(=C\c5ccc(Cl)cc5)C4=O)CC3)c(F)cc2c1=O" ? 6.2%

The values you see were collected from paper PMC11480511.
